# TEST TARGET: T1, isoform 121 of human VEGF-A (Peprotech) (human, UniProt P15692-9 27-147)
# T1 construct: also called human VEGF121; VEGF 121
# T1 sequence (looked up): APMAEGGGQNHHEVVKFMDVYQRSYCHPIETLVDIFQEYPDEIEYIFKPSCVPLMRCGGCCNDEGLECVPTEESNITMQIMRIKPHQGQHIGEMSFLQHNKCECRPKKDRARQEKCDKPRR
# TEST PROTOCOL: ELISA; antigen coated 1 µg/ml; Fab 10 µg/mL; 9E10-peroxidase
// absorbance at 492 nm lookup, one value per entry

[
  {
    "BINDER": "Fab L3H6 (Fab, V domains shown, The entries are the mature chains without the six histidines and c-myc that the heavy chain carried at its C-terminus in the assay) VH: QVQLVQSGAEVKKPGESLKISCKGSGYSFTSYWIGWVRQMPGKGLEWMGIIYPGDSDTRYSPSFQGQVTISADKSISTAYLQWSSLKASDTAMYYCARQGTHNRKIWGQGTMVTVSS VL: QAVVTQEPSLTVSPGGTVTLTCASSTGAVTSGNYPNWFQQRPGQPPRALIYSTSNKHSWTPARFSGSLLGGKAALTLSGAQPEDEAEYYCRLSYDLARPVFGGGTKLTVLG",
    "absorbance at 492 nm": 2.56
  },
  {
    "BINDER": "Fab L3H7 (Fab, V domains shown, Entries lack the six histidines and c-myc of the heavy chain) VH: QVQLVQSGAEVKKPGESLKISCKGSGYSFTSYWIGWVRQMPGKGLEWMGIIYPGDSDTRYSPSFQGQVTISADKSISTAYLQWSSLKASDTAMYYCARPYATDTRIWGQGTMVTVSS VL: QAVVTQEPSLTVSPGGTVTLTCASSTGAVTSGNYPNWFQQRPGQPPRALIYSTSNKHSWTPARFSGSLLGGKAALTLSGAQPEDEAEYYCRLSYDLARPVFGGGTKLTVLG",
    "absorbance at 492 nm": 2.22
  },
  {
    "BINDER": "Fab L3H5 (Fab, V domains shown, Entries lack the six histidines and c-myc of the heavy chain) VH: QVQLVQSGAEVKKPGESLKISCKGSGYSFTSYWIGWVRQMPGKGLEWMGIIYPGDSDTRYSPSFQGQVTISADKSISTAYLQWSSLKASDTAMYYCARLVHRYRAIWGQGTMVTVSS VL: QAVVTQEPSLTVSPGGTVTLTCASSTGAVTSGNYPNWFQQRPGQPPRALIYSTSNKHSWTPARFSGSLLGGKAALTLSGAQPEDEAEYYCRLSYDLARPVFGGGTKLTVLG",
    "absorbance at 492 nm": 2.25
  },
  {
    "BINDER": "Fab 2H1-32 (Fab, V domains shown) VH: QVQLVQSGAEVKKPGESLKISCKGSGYSFTSYWIGWVRQMPGKGLEWMGIIYPGDSDTRYSPSFQGQVTISADKSISTAYLQWSSLKASDTAMYYCARLVVRDTEIWGQGTMVTVSS VL: QAVVTQEPSLTVSPGGTVTLTCASSIGAVTSGNYPNWFQQRPGQPPRALIYSTSNKHSWTPARFSGSLLGGKAALTLSGAQPEDEAEYYCLLSYSGARPVFGGGTKLTVLG",
    "absorbance at 492 nm": 0.589
  }
]
